Data origin, for the record: patent US7022699B2

IC50 tested on human vasopressin V2 receptor subtype (Homo sapiens, UniProt P30518): recorded values
Sequence (P30518 whole entry): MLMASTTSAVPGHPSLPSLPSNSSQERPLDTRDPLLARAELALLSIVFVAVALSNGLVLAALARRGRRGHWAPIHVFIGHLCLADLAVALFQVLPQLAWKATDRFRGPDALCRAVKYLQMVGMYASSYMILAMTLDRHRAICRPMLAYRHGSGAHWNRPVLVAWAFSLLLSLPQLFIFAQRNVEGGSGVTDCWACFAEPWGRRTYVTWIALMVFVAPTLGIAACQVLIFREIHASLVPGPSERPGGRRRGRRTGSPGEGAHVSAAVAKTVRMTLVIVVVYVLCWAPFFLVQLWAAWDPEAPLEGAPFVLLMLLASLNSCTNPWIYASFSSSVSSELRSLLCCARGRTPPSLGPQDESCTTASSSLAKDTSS
experimental.readout: IC50 (nM)

| structure.smiles.string | quantitative.readout |
| --- | --- |
| COc1cc(C2=CCCCC2)c(Cl)cc1C(=O)N1Cc2cccn2Cc2ccccc21 | 176 |
| O=C(c1ccc(C2=CCCCC2)cc1)N1Cc2cccn2Cc2ccccc21 | 774 |

====

Entries and their melting point
experimental.readout: melting point

| structure.smiles.string | result |
| --- | --- |
| CC1=C(c2ccc(C(=O)N3Cc4cccn4Cc4ccccc43)cc2)CCCC1 | 119 to 120 °C |
| Cc1cc(C(=O)N2Cc3cccn3Cc3ccccc32)ccc1C1=CC(C)(C)CC(C)(C)C1 | 158 °C |
| Cc1cc(C(=O)N2Cc3cccn3Cc3ccccc32)ccc1C1=CCCCC1 | 182 to 183 °C |
| COc1cccc(C2=C(c3ccc(C(=O)N4Cc5cccn5Cc5ccccc54)cc3C)CCCC2)c1 | 91 to 94 °C |
